target: human GLP-2 receptors (Homo sapiens, UniProt O95838, D470N); test: GLP-2 receptor efficacy assay (cAMP AlphaScreen); format: cell-based
Sequence (O95838 whole entry D470N): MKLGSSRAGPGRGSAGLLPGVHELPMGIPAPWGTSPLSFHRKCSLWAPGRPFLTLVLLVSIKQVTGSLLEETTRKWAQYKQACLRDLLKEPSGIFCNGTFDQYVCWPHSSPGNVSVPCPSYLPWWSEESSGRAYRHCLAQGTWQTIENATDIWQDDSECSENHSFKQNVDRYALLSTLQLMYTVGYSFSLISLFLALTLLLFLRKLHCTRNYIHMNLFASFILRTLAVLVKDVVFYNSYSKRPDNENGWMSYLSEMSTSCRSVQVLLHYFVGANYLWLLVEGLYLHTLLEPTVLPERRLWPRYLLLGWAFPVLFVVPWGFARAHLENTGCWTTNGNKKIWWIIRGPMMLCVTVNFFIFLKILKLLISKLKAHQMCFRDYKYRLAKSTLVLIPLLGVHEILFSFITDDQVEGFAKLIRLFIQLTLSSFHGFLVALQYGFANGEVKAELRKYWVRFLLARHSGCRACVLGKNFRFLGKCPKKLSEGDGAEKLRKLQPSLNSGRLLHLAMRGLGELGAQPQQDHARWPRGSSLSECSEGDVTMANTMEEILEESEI
PARAMETER: EC50 (nM)

[
  {
    "SUBSTANCE": "H-HGEGTFSSELATILDALAARDFIAWLIATKITDKKKKKK-NH2 [ZP1848]",
    "TARGET_ENTITY": "human GLP-2 receptors (Homo sapiens, UniProt O95838, D470N)",
    "EC50 / nM": 0.3
  },
  {
    "SUBSTANCE": "H-HGEGTFSSELATILDALAARDFIAWLIATKITDK-OH [ZP2469]",
    "TARGET_ENTITY": "human GLP-2 receptors (Homo sapiens, UniProt O95838, D470N)",
    "EC50 / nM": 0.052
  },
  {
    "SUBSTANCE": "H-HGEGSFSSELSTILDALAARDFIAWLIATKITDKKKKKK-NH2 [ZP1846]",
    "TARGET_ENTITY": "human GLP-2 receptors (Homo sapiens, UniProt O95838, D470N)",
    "EC50 / nM": 0.26
  }
]

(P) H-HGEGTFSSELATILDALAARDFIAWLIATKITDKK-OH [ZP2711]
(Q) H-HGEGTFSSELATILDALAARDFIAWLIATKITDKKK-OH [ZP2949]
Of P and Q , which shows the smaller EC50 value? Respond using the label that marks the chosen record.
P
